# SYSTEM NAME: Serine/threonine-protein kinase mTOR (Homo sapiens)
REPORTED METRIC: pIC50
One number for each entry, as −log10 of the molar value.

- Cc1nc(-c2cccnc2Nc2cccc3[nH]ccc23)c2[nH]cnc2n1: 6.25

Next compound, pIC50 to be filled in.
stdin: GET /values?readout=pIC50&system=Serine/threonine-protein kinase mTOR (Homo sapiens)&item= COc1ccc(Nc2ncc(CN3CCN(C(=O)N(C)C)CC3)cc2-c2nc(C)nc(N)n2)cn1
stdout: 5.85

====

A short record of IC50 observed with Phosphatidylinositol 3-kinase catalytic subunit type 3 (Homo sapiens, UniProt Q8NEB9) follows.
Sequence (Q8NEB9 whole entry): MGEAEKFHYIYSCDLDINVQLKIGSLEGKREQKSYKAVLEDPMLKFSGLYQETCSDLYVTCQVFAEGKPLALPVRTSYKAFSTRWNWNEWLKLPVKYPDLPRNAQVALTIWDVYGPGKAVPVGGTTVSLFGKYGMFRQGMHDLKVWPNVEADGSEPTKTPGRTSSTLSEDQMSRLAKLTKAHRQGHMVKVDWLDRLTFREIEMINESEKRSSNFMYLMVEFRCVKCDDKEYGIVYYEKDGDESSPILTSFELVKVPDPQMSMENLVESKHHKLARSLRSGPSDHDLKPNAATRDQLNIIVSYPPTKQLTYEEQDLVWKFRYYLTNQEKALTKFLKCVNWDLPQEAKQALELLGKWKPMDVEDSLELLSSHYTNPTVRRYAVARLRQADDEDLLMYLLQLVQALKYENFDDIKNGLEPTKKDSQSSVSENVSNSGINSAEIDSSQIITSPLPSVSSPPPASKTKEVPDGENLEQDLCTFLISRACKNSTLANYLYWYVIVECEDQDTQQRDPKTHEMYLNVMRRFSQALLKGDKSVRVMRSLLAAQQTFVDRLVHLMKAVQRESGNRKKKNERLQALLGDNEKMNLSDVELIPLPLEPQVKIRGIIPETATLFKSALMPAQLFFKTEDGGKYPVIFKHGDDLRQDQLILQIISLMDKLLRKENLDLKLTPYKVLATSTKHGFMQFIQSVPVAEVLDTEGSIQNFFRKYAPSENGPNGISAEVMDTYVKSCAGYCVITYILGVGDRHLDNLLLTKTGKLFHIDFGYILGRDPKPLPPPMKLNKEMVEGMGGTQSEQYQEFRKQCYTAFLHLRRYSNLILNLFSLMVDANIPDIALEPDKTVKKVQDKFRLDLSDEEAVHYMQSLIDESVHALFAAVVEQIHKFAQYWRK

* Cc1nc(N)nc(-c2cccnc2Nc2cccc3[nH]ncc23)n1 | > 9 µM

Next compound, IC50 to be filled in.
stdin: What IC50 value was documented for this compound, Cc1nc(N)nc(-c2cccnc2Nc2cccc3[nH]ccc23)n1 ?
stdout: > 9 µM

====

# ASSAY INFO: in vitro
# EXPERIMENTAL CONDITIONS: rat, liver microsomes
# Description: Intrinsic clearance in rat liver microsomes
REPORTED METRIC: microsomal CLint (µL/min/mg)
Give bare numbers, in µL/min/mg.

- COc1ccc(Nc2ncc(N3CCOCC3)cc2-c2nc(C)nc(N)n2)cn1: 67

// input: 5 compounds below; output: microsomal CLint for each
1. COc1cnc(Nc2ccc(OC)nc2)c(-c2nc(C)nc(N)n2)c1
2. COc1ccc(Nc2nccnc2-c2nc(C)nc(N)n2)cn1
3. COc1ccc(Nc2ncc(CN3CCC(O)CC3)cc2-c2nc(C)nc(N)n2)cn1
4. Nc1cc(-c2cccnc2Nc2cccc3[nH]ncc23)nc(C(F)(F)F)n1
5. COc1ccc(Nc2ncccc2-c2ncnc3nc[nH]c23)cn1

stdout:
1: 86; 2: 41; 3: 23; 4: 76; 5: 109

// input: 7 compounds below; output: microsomal CLint for each
1. COc1ccc(Nc2ncc(CN3CCNCC3)cc2-c2nc(C)nc(N)n2)cn1
2. Cc1nc(N)cc(-c2cccnc2Nc2cccc3[nH]ncc23)n1
3. Cc1nc(-c2cccnc2Nc2cccc3n[nH]cc23)c2c[nH]nc2n1
4. Cc1nc(N)nc(-c2cccnc2Nc2cccc(O)c2)n1
5. COc1ccc(Nc2ncc(CN3CCN(C(=O)N(C)C)CC3)cc2-c2nc(C)nc(N)n2)cn1
6. COc1ccc(Nc2ncc(Cc3ccccc3)cc2-c2nc(C)nc(N)n2)cn1
7. COc1ccc(Nc2ncccc2-c2nc(C)nc(N)n2)cn1

stdout:
1. 35
2. 75
3. 56
4. 80
5. 17
6. 62
7. 51

// input: 3 compounds below; output: microsomal CLint for each
1. Cc1nc(N)nc(-c2cccnc2Nc2cccc3[nH]ncc23)n1
2. COc1ccc(Nc2ncc(CO)cc2-c2nc(C)nc(N)n2)cn1
3. COCc1cnc(Nc2ccc(OC)nc2)c(-c2nc(C)nc(N)n2)c1

stdout:
[65, 43, 58]

// input: 6 compounds below; output: microsomal CLint for each
1. Cc1cc(-c2cccnc2Nc2cccc(O)c2)nc(N)n1
2. COc1ccc(Nc2ncccc2-c2nc(C)nc3nc[nH]c23)cn1
3. Cc1nc(N)nc(-c2cccnc2Nc2cccc3[nH]ccc23)n1
4. COc1ccc(Nc2ncc(N3CCN(C)CC3)cc2-c2nc(C)nc(N)n2)cn1
5. COc1ccc(N(C)c2ncccc2-c2nc(C)nc(N)n2)cn1
6. COc1ccc(Nc2ncc(CN3CCCC3)cc2-c2nc(C)nc(N)n2)cn1

stdout:
1. 118
2. 68
3. 110
4. 23
5. 41
6. 37

stdin: What microsomal CLint value was documented for this compound, Cc1nc(-c2cccnc2Nc2cccc3[nH]ccc23)c2[nH]cnc2n1 ?
stdout: 90

====

# SYSTEM NAME: Phosphatidylinositol 4,5-bisphosphate 3-kinase catalytic subunit beta isoform (Homo sapiens)
# ASSAY INFO: biochemical
# Description: Inhibition of human N-terminal poly-His tagged-PI3Kbeta expressed in Sf9 baculovirus system co-expressing p85alpha after 20 mins by AlphaScreen assay
pKi: −log10 of the molar value.
Record condition met whenever pKi is at 7 or higher; record condition not met when lower.

Sample answers from the record:
* COc1ccc(Nc2ncc(CN3CCC(S(C)(=O)=O)CC3)cc2-c2nc(C)nc(N)n2)cn1 | condition met
* COc1ccc(Nc2ccccc2-c2nc(C)nc(N)n2)cn1 | condition not met
* COc1ccc(Nc2ncc(CO)cc2-c2nc(C)nc(N)n2)cn1 | condition met

stdin: Say whether COc1ccc(Nc2ncc(-c3cnn(C)c3)cc2-c2nc(C)nc(N)n2)cn1 shows pKi of 7 or more.
stdout: condition met

stdin: Say whether Cc1nc(NCC#N)nc(-n2c(Nc3cccc(O)c3)nc3ccccc32)n1 shows pKi of 7 or more.
stdout: condition met

stdin: Say whether Cc1nc(N)nc(-c2cccnc2Nc2cccc3[nH]ncc23)n1 shows pKi of 7 or more.
stdout: condition met

====

# SYSTEM NAME: Phosphatidylinositol 4,5-bisphosphate 3-kinase catalytic subunit alpha isoform (Homo sapiens, UniProt P42336)
# Sequence (P42336 whole entry, canonical isoform): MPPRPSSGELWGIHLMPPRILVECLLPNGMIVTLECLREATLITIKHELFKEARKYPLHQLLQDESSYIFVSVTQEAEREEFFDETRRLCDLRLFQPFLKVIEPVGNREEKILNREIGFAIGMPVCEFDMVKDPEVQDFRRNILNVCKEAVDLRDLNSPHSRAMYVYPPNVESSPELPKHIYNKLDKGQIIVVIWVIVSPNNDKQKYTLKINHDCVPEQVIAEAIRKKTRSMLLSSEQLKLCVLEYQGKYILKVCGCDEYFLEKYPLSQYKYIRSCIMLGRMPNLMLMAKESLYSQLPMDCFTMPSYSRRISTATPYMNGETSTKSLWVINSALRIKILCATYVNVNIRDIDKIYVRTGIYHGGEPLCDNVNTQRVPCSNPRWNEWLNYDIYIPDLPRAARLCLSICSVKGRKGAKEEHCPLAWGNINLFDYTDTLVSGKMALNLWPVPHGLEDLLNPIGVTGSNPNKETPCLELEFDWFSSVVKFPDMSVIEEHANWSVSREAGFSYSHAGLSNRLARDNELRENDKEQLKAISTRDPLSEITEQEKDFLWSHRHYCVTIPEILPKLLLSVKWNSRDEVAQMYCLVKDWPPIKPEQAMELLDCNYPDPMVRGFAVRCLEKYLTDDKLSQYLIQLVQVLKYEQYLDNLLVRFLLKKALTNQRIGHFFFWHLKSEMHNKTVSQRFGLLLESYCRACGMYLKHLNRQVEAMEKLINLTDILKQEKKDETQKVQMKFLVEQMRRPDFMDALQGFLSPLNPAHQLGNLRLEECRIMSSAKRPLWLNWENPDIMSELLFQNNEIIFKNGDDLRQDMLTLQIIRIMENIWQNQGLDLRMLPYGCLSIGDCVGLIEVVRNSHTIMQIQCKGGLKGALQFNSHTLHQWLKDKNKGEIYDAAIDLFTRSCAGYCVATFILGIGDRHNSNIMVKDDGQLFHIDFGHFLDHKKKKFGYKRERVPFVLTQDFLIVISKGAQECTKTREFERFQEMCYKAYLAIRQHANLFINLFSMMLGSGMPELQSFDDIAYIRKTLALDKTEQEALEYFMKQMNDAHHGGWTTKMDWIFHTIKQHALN
# ASSAY INFO: biochemical
# Description: Inhibition of human N-terminal poly-His tagged-PI3Kalpha expressed in Sf9 baculovirus system co-expressing p85alpha after 20 mins by AlphaScreen assay
For each entry below, report its Ki value.

These recorded examples may help you get a feel for the data.
* Cc1cc(-c2cccnc2Nc2cccc(O)c2)nc(N)n1 | 4900 nM
* COc1ccc(Nc2ncc(N3CCOCC3)cc2-c2nc(C)nc(N)n2)cn1 | 22 nM
* COCc1cnc(Nc2ccc(OC)nc2)c(-c2nc(C)nc(N)n2)c1 | 49 nM

// input: 8 compounds below; output: Ki for each
1. COc1ccc(Nc2ncc(CN3CCN(C(=O)N(C)C)CC3)cc2-c2nc(C)nc(N)n2)cn1
2. COc1ccc(Nc2cnccc2-c2nc(C)nc(N)n2)cn1
3. Nc1cc(-c2cccnc2Nc2cccc3[nH]ncc23)nc(C(F)(F)F)n1
4. COC(=O)N1CCN(Cc2cnc(Nc3ccc(OC)nc3)c(-c3nc(C)nc(N)n3)c2)CC1
5. Cc1nc(N)c(F)c(-c2cccnc2Nc2cccc3[nH]ncc23)n1
6. COc1ccc(Nc2ccccc2-c2nc(C)nc(N)n2)cn1
7. Cc1nc(N)cc(-c2cccnc2Nc2cccc3[nH]ncc23)n1
8. COc1ccc(Nc2ncc(Cc3ccccc3)cc2-c2nc(C)nc(N)n2)cn1

stdout:
["84 nM", "620 nM", "3200 nM", "94 nM", "930 nM", "640 nM", "150 nM", "59 nM"]

// input: 6 compounds below; output: Ki for each
1. Cc1nc(N)nc(-c2cccnc2Nc2cccc3[nH]ncc23)n1
2. Cc1ncnc(-n2c(Nc3cccc(O)c3)nc3ccccc32)n1
3. Cc1nc(N)cc(-c2cccnc2Nc2cccc(O)c2)n1
4. Cc1nc(NCC#N)nc(-n2c(Nc3cccc(O)c3)nc3ccccc32)n1
5. Cc1cc(-c2cccnc2Oc2cccc3[nH]ccc23)nc(N)n1
6. COc1ccc(Nc2ncc(Cl)cc2-c2nc(C)nc(N)n2)cn1

stdout:
["92 nM", "2 nM", "28 nM", "16 nM", "> 10000 nM", "290 nM"]

====

# SYSTEM NAME: Phosphatidylinositol 4,5-bisphosphate 3-kinase catalytic subunit gamma isoform (Homo sapiens)
# Sequence (P48736 whole entry, canonical isoform): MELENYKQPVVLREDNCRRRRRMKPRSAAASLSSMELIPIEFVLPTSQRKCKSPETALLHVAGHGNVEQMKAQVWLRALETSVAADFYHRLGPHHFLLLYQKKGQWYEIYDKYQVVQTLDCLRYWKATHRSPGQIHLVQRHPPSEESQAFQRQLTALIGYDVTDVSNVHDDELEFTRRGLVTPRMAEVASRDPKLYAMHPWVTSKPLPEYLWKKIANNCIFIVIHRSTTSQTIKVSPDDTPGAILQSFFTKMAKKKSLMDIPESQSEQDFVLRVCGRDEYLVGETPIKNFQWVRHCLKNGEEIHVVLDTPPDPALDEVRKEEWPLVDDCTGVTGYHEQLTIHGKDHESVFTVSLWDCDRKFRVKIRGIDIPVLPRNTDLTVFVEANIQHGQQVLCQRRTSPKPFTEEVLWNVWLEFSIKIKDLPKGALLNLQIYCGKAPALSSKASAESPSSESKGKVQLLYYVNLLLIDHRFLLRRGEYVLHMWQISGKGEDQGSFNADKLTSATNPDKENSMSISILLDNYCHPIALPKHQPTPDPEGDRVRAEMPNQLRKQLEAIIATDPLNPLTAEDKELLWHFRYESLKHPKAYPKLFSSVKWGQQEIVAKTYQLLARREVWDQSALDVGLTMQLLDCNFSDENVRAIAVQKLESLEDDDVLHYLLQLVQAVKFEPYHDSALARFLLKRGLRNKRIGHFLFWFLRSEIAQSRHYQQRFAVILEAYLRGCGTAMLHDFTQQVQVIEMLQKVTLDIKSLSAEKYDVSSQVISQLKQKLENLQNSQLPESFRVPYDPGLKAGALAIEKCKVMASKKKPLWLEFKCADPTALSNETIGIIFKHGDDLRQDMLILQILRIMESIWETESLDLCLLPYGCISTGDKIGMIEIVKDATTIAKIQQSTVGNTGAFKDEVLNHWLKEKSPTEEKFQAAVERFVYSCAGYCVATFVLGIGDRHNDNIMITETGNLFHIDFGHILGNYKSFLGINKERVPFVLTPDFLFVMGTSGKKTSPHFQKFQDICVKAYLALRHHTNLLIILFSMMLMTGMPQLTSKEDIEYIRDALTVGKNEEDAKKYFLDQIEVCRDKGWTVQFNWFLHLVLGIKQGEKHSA
# ASSAY INFO: biochemical
# Description: Inhibition of human N-terminal poly-His tagged-PI3Kgamma expressed in Sf9 baculovirus system co-expressing p85alpha after 20 mins by AlphaScreen assay
For each entry below, report its pKi value.
Give bare numbers, as −log10 of the molar value.

- COc1ccc(Nc2ncc(CN3CCC3)cc2-c2nc(C)nc(N)n2)cn1: 6.85
- COc1ccc(Nc2ncccc2-c2nc(C)nc(N)n2)cn1: 7.54
- COCCNCc1cnc(Nc2ccc(OC)nc2)c(-c2nc(C)nc(N)n2)c1: 7.00
- COc1ccc(Nc2ncccc2-c2nc(C)nc3nc[nH]c23)cn1: 7.92
- COc1cnc(Nc2ccc(OC)nc2)c(-c2nc(C)nc(N)n2)c1: 8.05
- Cc1nc(NCC#N)nc(-n2c(Nc3cccc(O)c3)nc3ccccc32)n1: 7.16
- COc1ccc(Nc2ncc(CN3CCN(C(=O)N(C)C)CC3)cc2-c2nc(C)nc(N)n2)cn1: 8.10
- COc1ccc(Nc2ncc(CO)cc2-c2nc(C)nc(N)n2)cn1: 7.62
- COc1ccc(Nc2ncc(Br)cc2-c2nc(C)nc(N)n2)cn1: 7.66

stdin: What pKi value was documented for this molecule, COc1ccc(Nc2nccnc2-c2cc(N)nc(C)n2)cn1 ?
stdout: 7.24

====

For each entry below, report its MRT value.
# ASSAY INFO: in vivo
# EXPERIMENTAL CONDITIONS: rat, iv, 1 mg/kg
# Description: Mean residence time in rat at 1 mg/kg, iv
One number for each entry, in h.

• COc1ccc(Nc2ncc(CN3CCC(S(C)(=O)=O)CC3)cc2-c2nc(C)nc(N)n2)cn1 = 1.3

// input: 2 molecules below; output: MRT for each
1. COc1ccc(Nc2ncc(Cc3ccc(S(C)(=O)=O)cc3)cc2-c2nc(C)nc(N)n2)cn1
2. COc1ccc(Nc2ncc(CC3CCN(S(C)(=O)=O)CC3)cc2-c2nc(C)nc(N)n2)cn1

stdout:
1. 1.2
2. 1

====

# SYSTEM NAME: Phosphatidylinositol 4,5-bisphosphate 3-kinase catalytic subunit beta isoform (Homo sapiens, UniProt P42338)
# Sequence (P42338 whole entry, canonical isoform): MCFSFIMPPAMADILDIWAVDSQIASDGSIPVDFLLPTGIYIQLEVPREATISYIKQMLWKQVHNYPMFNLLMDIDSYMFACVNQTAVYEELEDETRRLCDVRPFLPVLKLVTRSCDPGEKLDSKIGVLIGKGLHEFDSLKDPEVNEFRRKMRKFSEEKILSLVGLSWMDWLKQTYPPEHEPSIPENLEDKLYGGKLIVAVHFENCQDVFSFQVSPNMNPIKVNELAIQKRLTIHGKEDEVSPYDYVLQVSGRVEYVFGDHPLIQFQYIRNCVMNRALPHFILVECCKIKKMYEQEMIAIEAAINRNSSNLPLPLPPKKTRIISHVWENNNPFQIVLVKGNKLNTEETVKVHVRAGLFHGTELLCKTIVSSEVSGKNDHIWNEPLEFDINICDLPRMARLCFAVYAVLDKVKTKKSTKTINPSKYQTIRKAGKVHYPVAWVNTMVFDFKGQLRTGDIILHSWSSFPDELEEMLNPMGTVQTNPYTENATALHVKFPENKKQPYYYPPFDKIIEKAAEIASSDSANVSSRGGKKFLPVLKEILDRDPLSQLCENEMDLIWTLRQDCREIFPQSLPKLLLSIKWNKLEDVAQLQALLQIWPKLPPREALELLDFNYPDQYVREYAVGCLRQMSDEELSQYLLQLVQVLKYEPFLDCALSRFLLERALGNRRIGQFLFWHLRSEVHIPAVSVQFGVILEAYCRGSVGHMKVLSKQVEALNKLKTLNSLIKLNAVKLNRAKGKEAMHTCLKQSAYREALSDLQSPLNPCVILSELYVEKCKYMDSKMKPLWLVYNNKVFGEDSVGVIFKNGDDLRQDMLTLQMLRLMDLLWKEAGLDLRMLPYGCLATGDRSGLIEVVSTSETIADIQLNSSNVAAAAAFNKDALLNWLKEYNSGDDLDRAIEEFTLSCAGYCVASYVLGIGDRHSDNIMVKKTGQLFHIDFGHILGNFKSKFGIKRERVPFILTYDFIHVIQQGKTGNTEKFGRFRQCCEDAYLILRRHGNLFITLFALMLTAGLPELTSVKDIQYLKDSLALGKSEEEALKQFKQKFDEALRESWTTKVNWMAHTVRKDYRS
# ASSAY INFO: biochemical
pKi: −log10 of the molar value.
Record Criterion met whenever pKi is at 7 or higher; record Criterion not met when lower.

Sample answers from the record:
- COc1ccc(Nc2ncc(CN3CCNCC3)cc2-c2nc(C)nc(N)n2)cn1: Criterion met
- COC(=O)N1CCN(Cc2cnc(Nc3ccc(OC)nc3)c(-c3nc(C)nc(N)n3)c2)CC1: Criterion met
- COc1ccc(Nc2cnccc2-c2nc(C)nc(N)n2)cn1: Criterion not met
- COc1ccc(Nc2ncc(CC3CCN(S(C)(=O)=O)CC3)cc2-c2nc(C)nc(N)n2)cn1: Criterion met
- COc1cnc(Nc2ccc(OC)nc2)c(-c2nc(C)nc(N)n2)c1: Criterion met
- Cc1nc(N)cc(-c2cccnc2Nc2cccc(O)c2)n1: Criterion met
- COc1ccc(N(C)c2ncccc2-c2nc(C)nc(N)n2)cn1: Criterion not met
- COc1ccc(Nc2ncc(CN3CCN(S(=O)(=O)N(C)C)CC3)cc2-c2nc(C)nc(N)n2)cn1: Criterion met
- COc1ccc(Nc2ncc(Cl)cc2-c2nc(C)nc(N)n2)cn1: Criterion met
- COc1ccc(Nc2ncccc2-c2nc(C)nc(N)n2)cn1: Criterion met

stdin: Say whether COc1ccc(Nc2ncc(CN3CCC(S(C)(=O)=O)C3)cc2-c2nc(C)nc(N)n2)cn1 (racemic) shows pKi of 7 or more.
stdout: Criterion met

stdin: Say whether c1cnc(Nc2cccc3n[nH]cc23)c(-c2ncnc3nc[nH]c23)c1 shows pKi of 7 or more.
stdout: Criterion not met

stdin: Say whether Nc1cc(-c2cccnc2Nc2cccc3[nH]ncc23)nc(C(F)(F)F)n1 shows pKi of 7 or more.
stdout: Criterion not met

stdin: Say whether Cc1nc(N)nc(-c2cccnc2Nc2cccc(O)c2)n1 shows pKi of 7 or more.
stdout: Criterion met

stdin: Say whether COc1ccc(Nc2ncc(CN3CCN(C)CC3)cc2-c2nc(C)nc(N)n2)cn1 shows pKi of 7 or more.
stdout: Criterion met

stdin: Say whether COc1ccc(Nc2ncc(CN3CCCCC3)cc2-c2nc(C)nc(N)n2)cn1 shows pKi of 7 or more.
stdout: Criterion met

stdin: Say whether COc1ccc(Nc2cccnc2-c2nc(C)nc(N)n2)cn1 shows pKi of 7 or more.
stdout: Criterion not met
